Listed below: viability, T/C values for each entry.
Tested on: 922993-354-T-J3-PDC complex spheroids, viability
Experiment: Anticancer human tumor 922993-354-T-J3-PDC patient-derived endometrial carcinoma cell line growth inhibition [GQUAD]
Settings: second compound 1 µM; first compound 0.0999 µM; stronger effect = lower value
The figure you give is taken to be in %; do not add the unit.

MOLECULE	TARGET ENTITY	VALUE UNITS	viability, T/C
Cc1[nH]c2ccccc2c1CCNCc1ccc(/C=C/C(=O)NO)cc1 + CN(C)c1ccc(Nc2c3ccc(NC(=O)CCN4CCCC4)cc3nc3cc(NC(=O)CCN4CCCC4)ccc23)cc1	922993-354-T-J3-PDC complex spheroids, viability	%	97
CC[C@@]1(O)C(=O)OCc2c1cc1n(c2=O)Cc2cc3c(CN(C)C)c(O)ccc3nc2-1 + CN(C)c1ccc(Nc2c3ccc(NC(=O)CCN4CCCC4)cc3nc3cc(NC(=O)CCN4CCCC4)ccc23)cc1	922993-354-T-J3-PDC complex spheroids, viability	%	76.8
CCc1c2c(nc3ccc(O)cc13)-c1cc3c(c(=O)n1C2)COC(=O)[C@]3(O)CC + Cc1[nH]c2ccc(F)cc2c1-c1nc2c3cccnc3c3ncccc3c2[nH]1	922993-354-T-J3-PDC complex spheroids, viability	%	22.6

Entry CC[C@@]1(O)C(=O)OCc2c1cc1n(c2=O)Cc2cc3c(CN(C)C)c(O)ccc3nc2-1 + Cc1[nH]c2ccc(F)cc2c1-c1nc2c3cccnc3c3ncccc3c2[nH]1 : reported viability, T/C = ?
90.6

Dear colleague, I am looking for the recorded viability, T/C of the following molecule: CCc1c2c(nc3ccc(O)cc13)-c1cc3c(c(=O)n1C2)COC(=O)[C@]3(O)CC + CN(C)c1ccc(Nc2c3ccc(NC(=O)CCN4CCCC4)cc3nc3cc(NC(=O)CCN4CCCC4)ccc23)cc1
11.8

----------
Test system: 922993-354-T-J3-PDC complex spheroids, viability
Assay: Anticancer human tumor 922993-354-T-J3-PDC cell line growth inhibition [GQUAD];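 note: spheroids exposed to compounds for seven days; 100% = DMSO vehicle control viability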
Conditions: second compound 0.316 µM; first compound 0.1 µM; stronger effect = lower value
viability, T/C reference
Answer format: numeric, % implied, no suffix.

As a guide, the following entries are already answered.
COMPOUND	VALUE UNITS	REPORTED VALUE
Cc1cccc(N(C)C(=O)C2C(O)CCN2c2nc(C)cc(C(F)(F)F)c2C#N)c1 (stereo not given) + Cc1[nH]c2ccc(F)cc2c1-c1nc2c3cccnc3c3ncccc3c2[nH]1	%	112
COc1cccc2c1C(=O)c1c(O)c3c(c(O)c1C2=O)CC(O)(C(=O)CO)CC3OC1CC(N)C(O)C(C)O1 (stereo not given) + Cc1cnc(CNC(=O)c2c(=O)c3ccc(N4CCCN(C)CC4)nc3n3c2sc2ccccc23)cn1	%	39.7
O=c1[nH]cc(F)c(=O)[nH]1 + Cc1cnc(CNC(=O)c2c(=O)c3ccc(N4CCCN(C)CC4)nc3n3c2sc2ccccc23)cn1	%	47.1
COc1ccc([C@@H](O)c2cc(-c3ncnc4cc(N5CCOCC5)ccc34)c(F)cc2Cl)nn1 + Cc1[nH]c2ccc(F)cc2c1-c1nc2c3cccnc3c3ncccc3c2[nH]1	%	116

Report viability, T/C for CC(=O)O[C@H]1C(=O)[C@@]2(C)[C@H]([C@H](OC(=O)c3ccccc3)[C@]3(O)C[C@H](OC(=O)[C@H](O)[C@@H](NC(=O)c4ccccc4)c4ccccc4)C(C)=C1C3(C)C)[C@]1(OC(C)=O)CO[C@@H]1C[C@@H]2O + Cc1cnc(CNC(=O)c2c(=O)c3ccc(N4CCCN(C)CC4)nc3n3c2sc2ccccc23)cn1 tested on 922993-354-T-J3-PDC complex spheroids, viability.
49.6
